Tested on: UO-31
Test: NCI tumour cell line growth inhibition, 48 h
Active and inactive are the calls of the source. No stated cut-off is given here; in the data, active = GI50 up to about 1.1 µM and inactive = higher. Peptide text beside a SMILES is read from it. * marks the point of attachment. Boc = CC(C)(C)OC(=O)*; OBn = c1ccc(CO*)cc1
Form entry, call: pick from active, inactive

Solved cases below.
- compound: "N#Cc1c(-c2ccccc2)c2c([nH]c1=O)-c1cc([N+](=O)[O-])ccc1CCC2"
  class assignment: "inactive"
- compound: "COc1ccc(CCn2ccc(C)n2)c(OC)c1"
  class assignment: "inactive"
- compound: "COC(=O)CCc1cc(O)c2c(c1)C(C(=O)OC)C(c1ccc(O)c(O)c1)O2 (centres undefined)"
  class assignment: "inactive"
- compound: "CC#CCCCC1(C)CCNC1=S (centres undefined)"
  class assignment: "inactive"
- compound: "NCCCCNCCCNC(=O)c1nc(-c2nc(CCN)sc2Cl)sc1Cl"
  class assignment: "inactive"
- compound: "COc1cc(/C=C2/C(=O)NC(Cc3cc(OC)c(OC)c(C)c3OC)C(=O)N2Cc2ccccc2)c(OC)c(C)c1OC (centres undefined)"
  class assignment: "inactive"
- compound: "CC(=O)O[C@]12CCCCC1C1(O)C(O)CCCC[C@H]12 (some centres undefined)"
  class assignment: "inactive"
- compound: "CC1=C(c2ccc(C)cc2)NC(=S)C(C)C(c2ccc(C)cc2)=N1 (centres undefined)"
  class assignment: "inactive"
- compound: "CCOC(=O)CCc1c(C(=O)OCC)[nH]c(/C=C2/NC(=O)C(C)=C2CC)c1C"
  class assignment: "inactive"
- compound: "CC(NC(=O)C(NC(=O)OC(C)(C)C)C(C)C)C(=O)N1CCCC1C(=O)NCC(=O)NC(C(=O)NCC(=O)OCc1ccccc1)C(C)C (centres undefined) (Boc-VAPGVG-OBn; configuration not given here)"
  class assignment: "inactive"

Check the results log: what was the call for `NCCSc1nc2ccccc2c(=O)n1-c1ccccc1` ?
inactive

Short answer needed: outcome of this test for `O=C(O[C@H](/C=C/c1ccccc1)P1(=O)N(Cc2ccccc2)[C@H]2CCCC[C@@H]2N1Cc1ccccc1)c1ccccc1` ?
inactive

Would you mind telling me which call this test gave CCC1(O)CN(CCOC)[C@H]2C[C@@H]1C(=O)c1[nH]c3ccccc3c12 (some centres undefined) ?
inactive

Reference for the values: ChEMBL document CHEMBL1201862
